- Measured On: Aurora A (Homo sapiens, UniProt O14965)
- Sequence (O14965 123-380): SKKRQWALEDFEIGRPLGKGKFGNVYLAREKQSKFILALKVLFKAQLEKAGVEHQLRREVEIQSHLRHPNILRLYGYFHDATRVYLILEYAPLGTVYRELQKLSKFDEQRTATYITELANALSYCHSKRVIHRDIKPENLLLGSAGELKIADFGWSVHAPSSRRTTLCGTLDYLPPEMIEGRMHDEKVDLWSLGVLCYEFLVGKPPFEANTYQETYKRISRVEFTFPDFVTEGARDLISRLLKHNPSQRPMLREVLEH
Assay Endpoint: Kd

INPUT: Hello, please tell me recorded Kd for this one: O=S(=O)(O)c1cccc2cccc(Nc3ccccc3)c12 [ANS, 8-anilino-1-naphthalene sulfonate]
OUTPUT: 54 µM

The measurements presented in this section are drawn from paper PMC3098941.
